Reference for the values: patent US9725439B2

Answer each item with its documented half-life.
Experiment: Pharmacokinetics test on rats
Format: in vivo
Conditions: rat, po; male rats, gavage, single dose 5 mg/kg, plasma
Give bare numbers, in min.

- compound: "C=CC(=O)N1CCC(Nc2cc3c(Nc4ccc(F)c(Cl)c4)ncnc3cc2OC)CC1 [Example 2]"
  units label: "min"
  half-life: 143

Now let's try a different one.
Q. // lookup half-life for C=CC(=O)N1CC(Nc2cc3c(Nc4ccc(F)c(Cl)c4)ncnc3cc2OC)C1 [Example 1]
A. 78
